Origin of values: paper PMC4967831

molecular target: BoGH43A (Bacteroides ovatus); construct: pET28a construct with N-terminal His6-tag; test: ITC and crystal structure of the complex
Sequence (A7LXT8 21-526): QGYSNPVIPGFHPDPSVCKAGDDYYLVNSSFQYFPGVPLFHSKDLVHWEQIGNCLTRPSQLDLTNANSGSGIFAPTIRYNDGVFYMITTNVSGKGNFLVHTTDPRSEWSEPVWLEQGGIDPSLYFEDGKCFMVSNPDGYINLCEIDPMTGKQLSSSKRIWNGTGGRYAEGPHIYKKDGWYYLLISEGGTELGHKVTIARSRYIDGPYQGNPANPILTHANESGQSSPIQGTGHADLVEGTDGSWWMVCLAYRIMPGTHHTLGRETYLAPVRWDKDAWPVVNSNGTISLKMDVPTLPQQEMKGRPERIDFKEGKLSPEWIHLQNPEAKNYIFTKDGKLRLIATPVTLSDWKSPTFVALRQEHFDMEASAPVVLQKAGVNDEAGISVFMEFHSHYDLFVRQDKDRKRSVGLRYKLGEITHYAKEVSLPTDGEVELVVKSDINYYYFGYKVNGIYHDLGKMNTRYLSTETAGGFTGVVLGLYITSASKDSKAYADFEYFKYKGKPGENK
Reported property: Kd (µM)

>>> reported("OC[C@@H]1NC[C@H](O)[C@H]1O [AraDNJ]")
35
